target: acetylcholine receptor; assay: SPR, peptide at 10 uM over immobilized acetylcholine receptor
property measured: Binding affinity (RU)

* KSQLKK [6mer-2-110] | 153 RU

QUERY: What value of measured Binding affinity (RU) is listed for KWFLRK [6mer-2-69] ?
RESULT: 139 RU

QUERY: What value of measured Binding affinity (RU) is listed for RRATER [6mer-1-1198] ?
RESULT: 28 RU

QUERY: What value of measured Binding affinity (RU) is listed for KQFRRK [6mer-2-86] ?
RESULT: 126 RU

QUERY: What value of measured Binding affinity (RU) is listed for RVITKK [6mer-2-122] ?
RESULT: 125 RU

QUERY: What value of measured Binding affinity (RU) is listed for KQVYKR [6mer-2-71] ?
RESULT: 141 RU

QUERY: What value of measured Binding affinity (RU) is listed for RRRCRR [6mer-2-100] ?
RESULT: 142 RU

QUERY: What value of measured Binding affinity (RU) is listed for KRYSRK [6mer-2-113] ?
RESULT: 145 RU
